From: patent US20060069132A1

Test system: giant foxtail
Test: Test A pre-/postemergence herbicide test
Format: in vivo, Setaria faberi
Test parameters: Postemergence, 2000 g ai/ha; 0 to 100 scale, 0 no effect, 100 complete control
Measured attribute: Plant response rating, Foxtail, Giant

Quick request: Plant response rating, Foxtail, Giant for each listed item, please.
1. CCn1nc(C(C)(C)C)cc1C(=O)Nc1cccc(C(=O)OCCF)c1C
2. CCNC(=O)c1cccc(NC(=O)c2cc(C(C)(C)C)nn2CCF)c1
3. C=Cn1nc(C(C)(C)C)cc1C(=O)Nc1cccc(C(=O)N(CC)CC)c1

Resp:
1: 0; 2: 70; 3: 40

----------
System: morningglory
Test: Test B pre-/postemergence herbicide test
Format: in vivo, Ipomoea coccinea
Test parameters: preemergence, 125 g ai/ha; 0 to 100 scale, 0 is no effect, 100 is complete control
Experimental: […] At the same time, plants selected from these crop and weed species and also blackgrass (Alopecurus myosuroides Huds.), wheat (Triticum aestivum L.) and wild oat (Avena fatua L.) were treated with postemergence applications of test chemicals formulated in the same manner. […] Treated plants and controls were maintained in a greenhouse for 13 to 15 days, after which time all species were compared to controls and visually evaluated. […]
Consider the following molecules; for each one, report its Plant response rating, Morningglory.
Give bare numbers.

Field: example entries. Status: answers known.
- Compound smiles: "CCCn1nc(C(C)(C)C)cc1C(=O)Nc1cccc(C(C)=NO)c1"
  Subject of test: "morningglory"
  Measured number: 0
- Compound smiles: "CCn1nc(C(C)(C)C)cc1C(=O)Nc1cc(C(=O)NCC2CC2)ccn1"
  Subject of test: "morningglory"
  Measured number: 20

Quick request: Plant response rating, Morningglory for each listed item, please.
1. CCn1nc(C(C)(C)C)cc1C(=O)Nc1cccc(C(=O)NC2CC2)c1
2. CC(=O)c1cccc(NC(=O)c2cc(C(C)(C)C)nn2CCF)c1
3. CCn1nc(C(C)(C)C)cc1C(=O)Nc1cccc(OCCCF)c1
4. CCOC(=O)c1cc(NC(=O)c2cc(C(C)(C)C)nn2CC)c(F)cc1OC

Resp:
[0, 20, 0, 10]
